I'd be grateful if you could share measured RP-LC retention time for these entries.
Assay: gradient 5% acetonitrile 3 min, to 50% in 2 min, to 85% in 15 min, held 3 min, 100 µL/min
Conditions: column: Zorbax Extend-C18 2.1 x 50 mm; eluents: water / acetonitrile, 0.1% formic acid
Write it as a number; the unit s goes unstated.

Read off the recorded RP-LC retention time for COc1ccc(CN2C(=O)[C@H](OC)[C@@H]2C2=CCN(C(=O)C3(c4ccccc4)CC3)CC2)cc1
870

Find the measured RP-LC retention time of CN(C(=O)Cn1c(CCO)nc2ccccc21)c1ccccc1 and report it.
554

Kindly indicate its recorded RP-LC retention time. Item: COc1cc(NC(=O)[C@@H]2[C@H](c3cc(OC)c(OC)c(OC)c3)c3cc4c(cc3[C@H](O)[C@H]2CO)OCO4)cc(OC)c1
767

Quickly give me recorded RP-LC retention time for Cc1cccc2nc(-c3ccc(O)cc3)c(Nc3ccc4c(c3)OCCO4)n12
646

Identify the reported RP-LC retention time for the following entry. COCCCNC(=O)C1(C)Cn2nc(-c3ccccc3)cc2C(=O)N1Cc1ccc(OC)cc1 (centres undefined)
865

Give a short answer stating reported RP-LC retention time for O=C(NCc1ccccn1)C1CCN(C(=O)c2ncn3c2COC(c2ccc(F)cc2)C3)CC1 (centres undefined) .
622

Return value of RP-LC retention time for input CN(C)S(=O)(=O)c1ccc(-c2nnc(C(=O)NCc3ccccc3Cl)o2)cc1 , no commentary.
894

Return reported RP-LC retention time. Input molecule: O=C(Nc1ccc2ncsc2c1)c1sc2ccccc2c1Cl
997

Annotate the molecule CC(=O)N1CCCc2ccc(NC(=O)Cc3ccc(Cl)cc3)cc21 with its measured RP-LC retention time.
816

Quick one: give measured RP-LC retention time for CCc1ccc(NC(=O)C2CCCN(S(=O)(=O)c3c[nH]c(C(=O)N4CCCCCC4)c3)C2)cc1 (centres undefined)
923

Determine from records and report RP-LC retention time for Fc1ccccc1N1CCN(c2ncc3c(n2)CCN(Cc2cccc(F)c2F)C3)CC1
826

Please report the measured RP-LC retention time for CC(NC(=O)Cn1cc(C(=O)C(=O)N2CCCC2)c2ccccc21)c1ccc2c(c1)OCCCO2 (centres undefined)
815

Return the recorded RP-LC retention time value; entry: COc1ccc(-c2noc(C3CC(=O)N(c4ccc(C)c(C)c4)C3)n2)cc1 (centres undefined)
1050

Identify measured RP-LC retention time corresponding to CC12CCC3C(CC=C4CC(O)CCC43C)C1C/C(=C\N1CCCC1)C2=O (centres undefined)
943

Give me measured RP-LC retention time, please, for this molecule: O=C(NCCc1ccccc1)C1c2ccccc2C(=O)N1Cc1ccc2c(c1)OCO2 (centres undefined)
865

Give reported RP-LC retention time value for COc1cccc(-c2noc(Cn3c(=O)n(Cc4ccccc4)c(=O)c4sccc43)n2)c1
911

Supply RP-LC retention time value. Item: Cc1ccc(N2C(=O)CN(S(C)(=O)=O)CC2(C)C(=O)NCc2ccc(F)cc2)c(C)c1 (centres undefined)
834

Quote RP-LC retention time reported for O=C(NC1CCCC1)c1c2c(nc3ccc(F)cc13)CCC2 please.
750

Report RP-LC retention time, nothing else, for this molecule: CC(C)c1cc(C(=O)NC2CCCCCC2)n[nH]1
836

* * *

Assay: gradient 5% acetonitrile 3 min, to 50% in 2 min, to 85% in 15 min, held 3 min, 100 µL/min
Details: column: Zorbax Extend-C18 2.1 x 50 mm; eluents: water / acetonitrile, 0.1% formic acid
Binarize RP-LC retention time at 800 s; below is y, at or above is n.

Is the reported RP-LC retention time for CCc1ccccc1NC(=O)Cn1c(=O)nc(N2CCC(C)CC2)c2ccccc21 strictly below 800 s?
n

Please state whether RP-LC retention time is below 800 s for CCOC(=O)c1cn(Cc2cccc(F)c2)c2nc(C)ccc2c1=O
n

Is RP-LC retention time strictly under 800 s for the entry CC1CCN(S(=O)(=O)c2ccc3c(c2)CCCC(=O)N3CC(=O)NC2CCCCC2)CC1 ?
n

Problem: For the compound Cc1[nH]c(C(=O)N2CCC(CC(=O)NCc3ccco3)CC2)c(C)c1C(=O)OC(C)C , is RP-LC retention time under 800 s?
y

Is RP-LC retention time strictly under 800 s for the entry Cc1nn(-c2cc(N3CCCC3)ncn2)c(C)c1CCC(=O)NCc1ccco1 ?
y

* * *

Experiment: gradient 5% acetonitrile 3 min, to 50% in 2 min, to 85% in 15 min, held 3 min, 100 µL/min
Conditions: column: Zorbax Extend-C18 2.1 x 50 mm; eluents: water / acetonitrile, 0.1% formic acid
reported.endpoint: RP-LC retention time (s)
Could you give me the number in s? Just the number is fine.

Supply measured RP-LC retention time of Cc1sc2nc(SCC(=O)Nc3sc4c(c3C#N)CCCC4)n(C)c(=O)c2c1C in your reply.
1080

Give recorded RP-LC retention time. CN1C(=O)CCC2(CNC(=O)c3ccnn3C)CCC=C12 (stereo not given)
639

Specify RP-LC retention time for O=C1c2ccccc2C(O)(c2ccccc2)N1c1ccncc1 (stereo not given) and stop.
702

Specify measured RP-LC retention time for Cc1ccccc1OCc1ccc(-c2nc(C#N)c(NCCCN(C)C)o2)o1 .
727

Supply reported RP-LC retention time belonging to this compound: CC(=O)N(Cc1nn(C)c2c1CN(S(=O)(=O)Cc1ccccc1Cl)CC2)c1ccccc1
835

Please supply the value of reported RP-LC retention time for the item CCN1CCN(CCCNC(=O)c2ccc3c(c2)N(C)C(=O)C2CCCCN32)CC1 (stereo not given)
554

Answer with reported RP-LC retention time of CCCNC(=O)N(C)CCc1noc(COc2ccc(Cl)cc2)n1
833

Give the reported RP-LC retention time for this compound. CCc1ccc2c(c1)-c1ccccc1S(=O)(=O)N2CC(=O)N1CCN(C)CC1
662

Recall and state the measured RP-LC retention time for CCN1CCN(C(=O)C(C)n2c(=O)c(C(F)(F)F)nc3cc(C)c(C)cc32)CC1 (stereo not given) .
702

Please report RP-LC retention time for the following compound: COc1ccc(-c2nnc(-c3ccccc3)o2)cc1S(=O)(=O)NC1CCCC1
966

* * *

Test: gradient 5% acetonitrile 3 min, to 50% in 2 min, to 85% in 15 min, held 3 min, 100 µL/min
Conditions: column: Zorbax Extend-C18 2.1 x 50 mm; eluents: water / acetonitrile, 0.1% formic acid
Outcome: condition met for RP-LC retention time of at least 1000 s; condition not met for anything lower.

Answer whether RP-LC retention time of O=C1c2ccccc2C(=O)N1c1ccc(OC(F)(F)F)cc1 is greater than or equal to 1000 s.
condition not met

Tell me whether RP-LC retention time is at least 1000 s here: Cc1c(C(=O)NCC(C)C)cnn1-c1ccc(-c2nc(C(C)(C)C)no2)cn1
condition met

Check if RP-LC retention time >= 1000 s (inclusive). Item: Cc1ccc(C)c(CNS(=O)(=O)c2cc(-c3csc(C)n3)sc2C)c1
condition met

Is it the case that CCOC(=O)C(C)NC(=O)N1CCN(Cc2nc3cccnc3n2-c2ccc(CC)cc2)CC1 (stereo not given) has RP-LC retention time reaching or exceeding 1000 s?
condition not met

Hi, just wondering whether O=C(Nc1ccc(F)c(Cl)c1)N1CCC(n2cnc3ccc(F)cc3c2=O)CC1 shows RP-LC retention time of 1000 s or higher.
condition not met

* * *

Test: gradient 5% acetonitrile 3 min, to 50% in 2 min, to 85% in 15 min, held 3 min, 100 µL/min
Conditions: column: Zorbax Extend-C18 2.1 x 50 mm; eluents: water / acetonitrile, 0.1% formic acid
reported.endpoint: RP-LC retention time (s)
Give the quantity in s, number only.

Return RP-LC retention time (reported value) for this compound: CCn1nccc1C(=O)N1CCCC1c1ccc(C)cc1 (stereo not given)
890

Supply reported RP-LC retention time belonging to this compound: CCN1C(=O)C(CC(=O)NCc2ccncc2)Sc2ncccc21 (stereo not given)
558

Indicate the recorded RP-LC retention time value for this compound: Cc1csc(-c2cc(S(=O)(=O)NC3CC3)c(C)n2C)n1
809

Write down RP-LC retention time measured for item COC(=O)c1ccc2c(=O)n(-c3cc(C)cc(C)c3)c(N3CCC(C)CC3)nc2c1
1420

State its RP-LC retention time for this compound: c1ccc2c(c1)c(-c1noc(-c3ccncc3)n1)nn2CCN1CCCCC1
642

Answer with the recorded RP-LC retention time for the compound listed here: COCCNC(=O)C1CCCN(C(=O)c2cccc(C(F)(F)F)c2)C1 (stereo not given)
693

Read off the recorded RP-LC retention time for Cc1cc(C)n(Cc2nc(-c3ccc(NC(=O)Cc4cccc(F)c4)cc3)oc2C)n1
930

Specify reported RP-LC retention time for the compound shown: COC(=O)c1ccc(NS(=O)(=O)c2cc3n(c2)CCN(C(C)C)C3=O)cc1
731

Indicate the recorded RP-LC retention time value for this compound: Cc1ccc(C(=O)N2C[C@@H]3C[C@H]2C[C@@H]3NS(=O)(=O)c2ccccc2)cn1
615

Provide measured RP-LC retention time value, entry: CCNC(=O)c1cn(-c2ccc(NC(=O)CC(C)C)cn2)cn1
658
